Assignment: determine reported absolute recovery for the given compounds.
# protocolDetails: absolute recovery over mixed-bed multilayer solid-phase extraction; higher = better recovery
# conditionParameters: nanopure water; enrichment method: SPE
Field: numeric (%). Do not append units.

In: Dear colleague, I am looking for the recorded absolute recovery of the following compound: CCCc1nc2c(C)cc(-c3nc4ccccc4n3C)cc2n1Cc1ccc(-c2ccccc2C(=O)[O-])cc1
Out: 108

In: Dear colleague, I am looking for the recorded absolute recovery of the following compound: C[NH2+]CCC(Oc1ccccc1C)c1ccccc1 (centres undefined)
Out: 74.6

In: Dear colleague, I am looking for the recorded absolute recovery of the following compound: CON=C(C(=O)OC)c1ccccc1COc1ccccc1C
Out: 103

In: Dear colleague, I am looking for the recorded absolute recovery of the following compound: CCC(C)C(=O)OC1CC(O)C=C2C=CC(C)C(CCC(O)CC(O)CC(=O)[O-])C21 (centres undefined)
Out: 92.4

In: Dear colleague, I am looking for the recorded absolute recovery of the following compound: CCC(C)C(=O)OC1CC(C)C=C2C=CC(C)C(CCC3CC(O)CC(=O)O3)C21 (centres undefined)
Out: 70.5

In: Dear colleague, I am looking for the recorded absolute recovery of the following compound: CC(C)(C(=O)[O-])c1ccc(C(O)CCC[NH+]2CCC(C(O)(c3ccccc3)c3ccccc3)CC2)cc1 (centres undefined) [Fexofenadin]
Out: 97

In: Dear colleague, I am looking for the recorded absolute recovery of the following compound: CCc1ccc(CCOc2ccc(CC3SC(=O)[N-]C3=O)cc2)nc1 (centres undefined)
Out: 93.3

In: Dear colleague, I am looking for the recorded absolute recovery of the following compound: COc1ccc(C(=CC(=O)N2CCOCC2)c2ccc(Cl)cc2)cc1OC
Out: 98.4

In: Dear colleague, I am looking for the recorded absolute recovery of the following compound: COc1cccc(C2(O)CCCCC2C[NH3+])c1 (centres undefined)
Out: 50.1

====

# protocolDetails: absolute recovery over vacuum-assisted evaporative concentration; higher = better recovery
# conditionParameters: wastewater influent; enrichment method: VEC
quantityKind: absolute recovery (%)
Field: numeric (%). Do not append units.

In: Dear colleague, I am looking for the recorded absolute recovery of the following compound: C[NH+](C)CC(c1ccc(O)cc1)C1(O)CCCCC1 (stereo not given)
Out: 97.9

In: Dear colleague, I am looking for the recorded absolute recovery of the following compound: Cc1cc(C)nc(NC(=O)[N-]S(=O)(=O)c2ccccc2C(=O)OC2COC2)n1
Out: 103

In: Dear colleague, I am looking for the recorded absolute recovery of the following compound: OC(Cn1cncn1)(Cn1cncn1)c1ccc(F)cc1F
Out: 105

In: Dear colleague, I am looking for the recorded absolute recovery of the following compound: CC(C)N(C(=O)CCl)c1ccccc1
Out: 76.9

In: Dear colleague, I am looking for the recorded absolute recovery of the following compound: Nc1ccn(C2OC(CO)C(O)C2(F)F)c(=O)n1 (stereo not given)
Out: 12.8

In: Dear colleague, I am looking for the recorded absolute recovery of the following compound: N#Cc1c(Cl)c(Cl)c([O-])c(C(=[NH2+])[O-])c1Cl
Out: 105

In: Dear colleague, I am looking for the recorded absolute recovery of the following compound: CCOC(=O)C1=NN(c2ccc(Cl)cc2Cl)C(C)(C(=O)OCC)C1 (stereo not given)
Out: 87.1

In: Dear colleague, I am looking for the recorded absolute recovery of the following compound: CCCC(Cn1cncn1)c1ccc(Cl)cc1Cl (stereo not given)
Out: 105

In: Dear colleague, I am looking for the recorded absolute recovery of the following compound: CS(=O)(=O)c1ccc(C(=O)[O-])c([N+](=O)[O-])c1
Out: 104

In: Dear colleague, I am looking for the recorded absolute recovery of the following compound: CCCC(C)C1(CC)C(=O)N=C([S-])NC1=O (stereo not given)
Out: 82.5

====

# protocolDetails: absolute recovery over vacuum-assisted evaporative concentration; higher = better recovery
# conditionParameters: wastewater effluent; enrichment method: VEC
quantityKind: absolute recovery (%)
Field: numeric (%). Do not append units.

In: Dear colleague, I am looking for the recorded absolute recovery of the following compound: COc1ccc2c(c1)c(CC(=O)OCC(=O)[O-])c(C)n2C(=O)c1ccc(Cl)cc1
Out: 97.8

In: Dear colleague, I am looking for the recorded absolute recovery of the following compound: Nc1ccc(S(=O)(=O)[O-])cc1
Out: 124

In: Dear colleague, I am looking for the recorded absolute recovery of the following compound: CSc1nc(N)nc(NC(C)(C)C)n1
Out: 106

In: Dear colleague, I am looking for the recorded absolute recovery of the following compound: COc1cccc2c1C(=O)c1c(O)c3c(c(O)c1C2=O)CC(O)(C(=O)CO)CC3OC1CC([NH3+])C(O)C(C)O1 (centres undefined)
Out: 38.8

In: Dear colleague, I am looking for the recorded absolute recovery of the following compound: CC12CCC(=O)C=C1CCC1C2C(O)CC2(C)C(C(=O)CO)CCC12 (centres undefined)
Out: 111

In: Dear colleague, I am looking for the recorded absolute recovery of the following compound: CC(C)CC(C[NH3+])CC(=O)[O-] (racemic)
Out: 108

In: Dear colleague, I am looking for the recorded absolute recovery of the following compound: COc1ccc2c(c1OC)C(=O)OC2C1c2c(cc3c(c2OC)OCO3)CC[NH+]1C (centres undefined)
Out: 85.7

In: Dear colleague, I am looking for the recorded absolute recovery of the following compound: CC(Oc1ccc(Oc2ncc(C(F)(F)F)cc2Cl)cc1)C(=O)[O-] (centres undefined)
Out: 102

In: Dear colleague, I am looking for the recorded absolute recovery of the following compound: CC[NH+](CC)CCNC(=O)c1cc(S(C)(=O)=O)ccc1OC
Out: 108

====

# protocolDetails: LC retention time (Atlantis T3, 5-95% MeOH gradient, 0.1% formic acid); higher = more retained / less polar
quantityKind: LC retention time (min)
Field: numeric (min). Do not append units.

In: Dear colleague, I am looking for the recorded LC retention time of the following compound: CCCCC(=O)N(Cc1ccc(-c2ccccc2-c2nnn[n-]2)cc1)C(C(=O)[O-])C(C)C (stereo not drawn)
Out: 19.6

In: Dear colleague, I am looking for the recorded LC retention time of the following compound: O=S(=O)([O-])c1ccc2ccccc2c1
Out: 17.2

In: Dear colleague, I am looking for the recorded LC retention time of the following compound: CN1COCN(Cc2cnc(Cl)s2)C1=N[N+](=O)[O-]
Out: 12.2

In: Dear colleague, I am looking for the recorded LC retention time of the following compound: COC(=O)C1C2CC3c4[nH]c5cc(OC)ccc5c4CC[NH+]3CC2CC(OC(=O)c2cc(OC)c(OC)c(OC)c2)C1OC (stereo not drawn)
Out: 15.9

In: Dear colleague, I am looking for the recorded LC retention time of the following compound: CCC(C)C(=O)OC1CC(O)C=C2C=CC(C)C(CCC(O)CC(O)CC(=O)[O-])C21 (stereo not drawn)
Out: 18.4

In: Dear colleague, I am looking for the recorded LC retention time of the following compound: C=CC1=C(C(=O)[O-])N2C(=O)C([NH3+])C2SC1 (stereo not drawn)
Out: 6.11

In: Dear colleague, I am looking for the recorded LC retention time of the following compound: C[NH+](C)CCC=C1c2ccccc2CCc2ccccc21
Out: 16.1

In: Dear colleague, I am looking for the recorded LC retention time of the following compound: CCOP(=O)(OCC)OCC
Out: 15.9

====

Assignment: determine reported absolute recovery for the given molecules.
# protocolDetails: absolute recovery over mixed-bed multilayer solid-phase extraction; higher = better recovery
# conditionParameters: surface water; enrichment method: SPE
Field: numeric (%). Do not append units.

In: Dear colleague, I am looking for the recorded absolute recovery of the following molecule: O=S(=O)([O-])c1ccc2ccc(S(=O)(=O)[O-])cc2c1 [2-7-Naphthalenedisulfonic-acid]
Out: 77.6

In: Dear colleague, I am looking for the recorded absolute recovery of the following molecule: CC(=O)SC1CC2=CC(=O)CCC2(C)C2CCC3(C)C(CCC34CCC(=O)O4)C12 (centres undefined) [Spironolacton]
Out: 79.1

In: Dear colleague, I am looking for the recorded absolute recovery of the following molecule: c1ccc(C2CN3CCSC3=[NH+]2)cc1 (centres undefined) [Levamisol]
Out: 81.9

In: Dear colleague, I am looking for the recorded absolute recovery of the following molecule: CN1C(=O)CC(C)(c2ccccc2)C1=O (centres undefined) [Methsuximide]
Out: 84.5

In: Dear colleague, I am looking for the recorded absolute recovery of the following molecule: COc1ccc(C2Sc3ccccc3N(CC[NH+](C)C)C(=O)C2OC(C)=O)cc1 (centres undefined) [Diltiazem]
Out: 95.6

In: Dear colleague, I am looking for the recorded absolute recovery of the following molecule: CCCCc1[nH+]cc(C=C(Cc2cccs2)C(=O)[O-])n1Cc1ccc(C(=O)[O-])cc1 [Eprosartan]
Out: 93.4

In: Dear colleague, I am looking for the recorded absolute recovery of the following molecule: CC(C)(C)Nc1nc(N)nc(Cl)n1 [Terbutylazin-desethyl]
Out: 97.5

In: Dear colleague, I am looking for the recorded absolute recovery of the following molecule: CCC(=O)OC(OP(=O)(CCCCc1ccccc1)CC(=O)N1CC(C2CCCCC2)CC1C(=O)[O-])C(C)C (centres undefined) [Fosinopril]
Out: 22

In: Dear colleague, I am looking for the recorded absolute recovery of the following molecule: O=C1C(Cl)C(CCl)CN1c1cccc(C(F)(F)F)c1 (centres undefined) [Flurochloridon]
Out: 104

In: Dear colleague, I am looking for the recorded absolute recovery of the following molecule: CSc1nc(=O)c(C(C)(C)C)n[n-]1 [Metribuzin-Desamino (=DA)]
Out: 91.2

In: Dear colleague, I am looking for the recorded absolute recovery of the following molecule: NC(=O)N=C1SCCN1Cc1ccc(Cl)nc1 [Thiacloprid-amide]
Out: 108

In: Dear colleague, I am looking for the recorded absolute recovery of the following molecule: COc1cccc(C2(O)CCCCC2C[NH+](C)C)c1 (centres undefined) [Tramadol]
Out: 85.7

In: Dear colleague, I am looking for the recorded absolute recovery of the following molecule: CC(C)Nc1nc(O)nc(NC(C)C)n1 [Propazine-2-hydroxy I]
Out: 96.9

In: Dear colleague, I am looking for the recorded absolute recovery of the following molecule: CCNc1nc(Cl)nc(NCC)n1 [Simazin]
Out: 94.4

In: Dear colleague, I am looking for the recorded absolute recovery of the following molecule: COCCN(C(=O)CS(=O)(=O)[O-])c1c(C)cccc1C [Dimethachlor-ESA]
Out: 102

In: Dear colleague, I am looking for the recorded absolute recovery of the following molecule: C[NH2+]CC(O)c1ccc(O)c(O)c1 (centres undefined) [Epinephrine]
Out: 12.7

In: Dear colleague, I am looking for the recorded absolute recovery of the following molecule: COc1ccc2cc(C(C)C(=O)[O-])ccc2c1 (centres undefined) [Naproxen]
Out: 96.5

In: Dear colleague, I am looking for the recorded absolute recovery of the following molecule: COCCCOc1cc(CC(CC([NH3+])C(O)CC(C(=O)NCC(C)(C)C(N)=O)C(C)C)C(C)C)ccc1OC (centres undefined) [Aliskiren]
Out: 82.7

In: Dear colleague, I am looking for the recorded absolute recovery of the following molecule: C#CCOc1ccc(CCNC(=O)C(OCC#C)c2ccc(Cl)cc2)cc1OC (centres undefined) [Mandipropamid]
Out: 117
